# measured_on: MAGI2_5, Q86UL8
# Sequence (Q86UL8 915-1017): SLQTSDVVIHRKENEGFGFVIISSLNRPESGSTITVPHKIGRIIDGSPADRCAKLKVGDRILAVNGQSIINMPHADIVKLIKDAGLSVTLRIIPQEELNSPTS
# assay: holdup assay
# Parameters: key: below the threshold = too weak to quantify, mostly under pKd 3.1 to 4
# condition_parameters: plain residues with an end cap or a label only (N-terminal biotin on a linker: ado-ado)
property_measured: pKd

A selection of reference data follows.
                        binder               result
0  HSGYRLNDYV [CLDN14, O95500]  below the threshold
1   VKPQVSESKL [ACOT8, O14734]  below the threshold
2   QMNQTLPVQV [EPHB3, P54753]  below the threshold
3   IPLDGETEEL [MYOZ1, Q9NP98]  below the threshold
4   PKRSFIESNV [TANC1, Q9C0D5]                 4.41

// lookup pKd for LPHGHSTTRV [NLGN4X, Q8N0W4]
below the threshold

Now give it for QSPANIYYKV [EFNB1, P52799] too.
below the threshold

Now give it for SSALYGESDL [ACTN2, P35609] too.
below the threshold

Now give it for MLSKQSESAI [FLVCR1, Q9Y5Y0] too.
below the threshold

Now give it for VYPNAKVELV [PDLIM4_iso2, P50479;P50479-1] too.
below the threshold

Now give it for VDSTVKVWTC [TRAF7, Q6Q0C0] too.
below the threshold
